system-name: PTK2-phosphorylation at tyrosine 397 (pY397) (Homo sapiens, UniProt Q05397)
Construct: endogenous in cells; host or cells: PC-3 (ATCC CRL-1435)
Sequence (Q05397 whole entry): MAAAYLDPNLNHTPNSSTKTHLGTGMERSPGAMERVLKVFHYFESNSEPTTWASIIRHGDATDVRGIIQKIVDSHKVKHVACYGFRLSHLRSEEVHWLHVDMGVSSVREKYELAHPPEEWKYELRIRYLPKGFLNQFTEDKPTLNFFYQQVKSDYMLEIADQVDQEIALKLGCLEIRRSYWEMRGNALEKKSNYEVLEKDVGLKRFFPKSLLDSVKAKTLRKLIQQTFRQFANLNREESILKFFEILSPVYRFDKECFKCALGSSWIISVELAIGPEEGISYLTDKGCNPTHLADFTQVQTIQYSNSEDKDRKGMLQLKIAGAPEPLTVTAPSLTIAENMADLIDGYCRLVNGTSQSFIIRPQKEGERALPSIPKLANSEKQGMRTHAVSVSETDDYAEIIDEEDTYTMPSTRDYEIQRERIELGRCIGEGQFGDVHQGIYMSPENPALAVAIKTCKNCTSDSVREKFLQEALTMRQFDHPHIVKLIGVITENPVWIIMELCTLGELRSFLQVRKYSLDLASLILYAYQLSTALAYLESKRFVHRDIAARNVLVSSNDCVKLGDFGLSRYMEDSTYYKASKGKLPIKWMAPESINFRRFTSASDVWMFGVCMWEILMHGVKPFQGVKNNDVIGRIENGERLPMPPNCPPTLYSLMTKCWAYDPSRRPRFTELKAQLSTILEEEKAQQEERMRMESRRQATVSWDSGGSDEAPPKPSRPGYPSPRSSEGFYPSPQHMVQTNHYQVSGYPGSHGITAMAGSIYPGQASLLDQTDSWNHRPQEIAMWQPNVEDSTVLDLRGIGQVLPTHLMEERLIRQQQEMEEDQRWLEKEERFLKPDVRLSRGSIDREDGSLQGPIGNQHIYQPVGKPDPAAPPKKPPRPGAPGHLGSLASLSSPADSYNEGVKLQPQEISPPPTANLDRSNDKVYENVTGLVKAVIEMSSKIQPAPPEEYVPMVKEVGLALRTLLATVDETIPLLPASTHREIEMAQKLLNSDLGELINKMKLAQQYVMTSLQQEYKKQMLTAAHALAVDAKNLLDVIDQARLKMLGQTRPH
assay-details: Phospho-PTK2 (pY397) Assay in PC-3 cells
Assay type: cell-based
experimental-setup: PC-3 prostate carcinoma cells, 2 h incubation; read-out: PC3pPTK2 Y397 EC50
Consider the following molecules and their measured pEC50 readings.
Interpret pEC50 as the negative base-10 log of the concentration measured in mol/L.

Sample records with pEC50:
structure-smiles-string | system-name | pEC50
COc1cc(C(=O)N[C@H]2CC[C@H](N3C[C@@H](C)O[C@@H](C)C3)CC2)ccc1Nc1ncc(C(F)(F)F)c(NCc2ccc(C)cc2N(C)S(C)(=O)=O)n1 | PTK2-phosphorylation at tyrosine 397 (pY397) (Homo sapiens, UniProt Q05397) | 8.52
COc1cc(C(=O)N[C@H]2CN3CCC2CC3)ccc1Nc1ncc(C(F)(F)F)c(NCc2ccc(C)cc2N(C)S(C)(=O)=O)n1 | PTK2-phosphorylation at tyrosine 397 (pY397) (Homo sapiens, UniProt Q05397) | 9.57

Task: Consider the molecule `COc1cc(CNC2CCOCC2)ccc1Nc1ncc(C(F)(F)F)c(NCc2ccc(C)cc2N(C)S(C)(=O)=O)n1` and give its measured pEC50.
Output: 9.51

----------
system-name: PTK2-phosphorylation at tyrosine 397 (pY397) (Homo sapiens)
Construct: endogenous in cells
assay-details: Phospho-PTK2 (pY397) Assay in PC-3 cells
experimental-setup: PC-3 prostate carcinoma cells, 2 h incubation; read-out: PC3pPTK2 Y397 EC50
Measured EC50 by item
Answer with a number only, understood to be in nM.

Task: Can you look up the measured EC50 of COc1cc(CN(C)C)ccc1Nc1ncc(C(F)(F)F)c(NCc2ccc(C)cc2N(C)S(C)(=O)=O)n1 [Example 3] for me?
Output: 0.11

Task: Could you share which EC50 value was measured for COc1cc(C(=O)N(C)C)c(C)cc1Nc1ncc(C(F)(F)F)c(NCc2ccc(C)cc2N(C)S(C)(=O)=O)n1 [Example 123] ?
Output: 3

Task: State the recorded EC50 for this entry: COc1cc(C(=O)N[C@H]2CC[C@H](N3CCN(CC4CC4)CC3)CC2)ccc1Nc1ncc(C(F)(F)F)c(NCc2ccc(C)cc2N(C)S(C)(=O)=O)n1 [Example 95]
Output: 2

Task: Endpoint output: EC50 of COc1cc(C(=O)NC2CCN(CC(F)F)CC2)ccc1Nc1ncc(C(F)(F)F)c(NCc2ccc(C)cc2N(C)S(C)(=O)=O)n1 [Example 18] . Value?
Output: 0.2

----------
system-name: PTK2-phosphorylation at tyrosine 397 (pY397) (Homo sapiens, UniProt Q05397)
Construct: endogenous in cells
assay-details: Phospho-PTK2 (pY397) Assay in PC-3 cells
experimental-setup: PC-3 prostate carcinoma cells, 2 h incubation; read-out: PC3pPTK2 Y397 EC50
Categorize each record by its EC50 using bucket 1 = under 0.5 nM, bucket 2 = from 0.5 nM up to 0.7 nM, bucket 3 = 0.7 nM and over

Would you please look over these solved cases?
structure-smiles-string | discrete-label
COc1cc(N2CCN(CC(=O)N3CCOCC3)CC2)ccc1Nc1ncc(C(F)(F)F)c(NCc2ccc(C)cc2N(C)S(C)(=O)=O)n1 | bucket 1
COc1cc(C(=O)NC2CCN(C)CC2)ccc1Nc1ncc(C(F)(F)F)c(NCc2ccc(F)cc2N(C)S(C)(=O)=O)n1 | bucket 2
COc1cc(C(=O)NC2CCN(C)CC2)ccc1Nc1ncc(C(F)(F)F)c(NCc2ccc(Cl)cc2N(C)S(C)(=O)=O)n1 | bucket 3

Next up:
Task: Which class is correct for the following compound? `COc1cc(C(=O)N[C@H]2CCCN(C3CCOCC3)C2)ccc1Nc1ncc(C(F)(F)F)c(NCc2ccc(C)cc2N(C)S(C)(=O)=O)n1`
Output: bucket 2
